tested on: MT4; assay: Concentration required to inhibit HIV-1-induced cytopathic effect by 50% in MT-4 cells; format: functional, cell-based; details: Homo sapiens
Please provide measured EC50 for the entries that follow.

May I ask what EC50 has been recorded for C=C(COCP(=O)(O)O)Cn1ccc(N)nc1=O ? > 100 µM

Field entry: Nc1nc(O)c2ncn(C/C=C\COCP(=O)(O)O)c2n1 > 100 µM

Same thing, different compound: Nc1ccn(CC#CCOCP(=O)(O)O)c(=O)n1 > 100 µM

Now give it for Cc1cn([C@H]2C[C@H](N=[N+]=[N-])[C@@H](CO)O2)c(=O)[nH]c1=O too. 0.035 µM

Next compound up: Nc1ncnc2c1ncn2CC#CCOCP(=O)(O)O > 100 µM

Input Nc1ncnc2c1ncn2CCOCP(=O)(O)O 22 µM

Then this compound: Nc1ccn(C/C=C\COCP(=O)(O)O)c(=O)n1 > 100 µM

Same again, this time with Nc1ncnc2c1ncn2C/C=C\COCP(=O)(O)O 170 µM

Same thing, different compound: C=C(COCP(=O)(O)O)Cn1cnc2c(O)nc(N)nc21 25 µM

Subsequent entry: C=C(COCP(=O)(O)O)Cn1cnc2c(N)ncnc21 > 100 µM

###

system: MT4; assay: Cytotoxic concentration required to reduce the viability of MT-4 cells; type: functional; details: Homo sapiens
Assignment: determine reported CC50 for the given compounds.

Requested field: CC50. Item: C=C(COCP(=O)(O)O)Cn1cnc2c(N)ncnc21 > 1000 µM

What do you get for Nc1ncnc2c1ncn2CCOCP(=O)(O)O ? 187 µM

Same again, this time with C=C(COCP(=O)(O)O)Cn1ccc(N)nc1=O > 100 µM

Cool, now Nc1ncnc2c1ncn2C/C=C\COCP(=O)(O)O > 1000 µM

Then Nc1ncnc2c1ncn2CC#CCOCP(=O)(O)O ? 800 µM

Entry to check: Nc1ccn(CC#CCOCP(=O)(O)O)c(=O)n1 > 100 µM

One more compound: Nc1nc(O)c2ncn(C/C=C\COCP(=O)(O)O)c2n1 > 1000 µM

###

system: MT4; experiment: Cytotoxic concentration required to reduce the viability of MT-4 cells; assay type: functional; conditions: Homo sapiens
For each record, write down the corresponding CC50.
// units = µM; emit number, no label

Recorded CC50 for C=C(COCP(=O)(O)O)Cn1cnc2c(O)nc(N)nc21 , please? 1800

Same question, Cc1cn([C@H]2C[C@H](N=[N+]=[N-])[C@@H](CO)O2)c(=O)[nH]c1=O this time 113

Data provenance: ChEMBL document CHEMBL1128166
